# assay-target: T1, human TNFR1 on cells (HT1080, HeLa, Kym-1) (human, UniProt P19438 30-455)
# T1 sequence (looked up): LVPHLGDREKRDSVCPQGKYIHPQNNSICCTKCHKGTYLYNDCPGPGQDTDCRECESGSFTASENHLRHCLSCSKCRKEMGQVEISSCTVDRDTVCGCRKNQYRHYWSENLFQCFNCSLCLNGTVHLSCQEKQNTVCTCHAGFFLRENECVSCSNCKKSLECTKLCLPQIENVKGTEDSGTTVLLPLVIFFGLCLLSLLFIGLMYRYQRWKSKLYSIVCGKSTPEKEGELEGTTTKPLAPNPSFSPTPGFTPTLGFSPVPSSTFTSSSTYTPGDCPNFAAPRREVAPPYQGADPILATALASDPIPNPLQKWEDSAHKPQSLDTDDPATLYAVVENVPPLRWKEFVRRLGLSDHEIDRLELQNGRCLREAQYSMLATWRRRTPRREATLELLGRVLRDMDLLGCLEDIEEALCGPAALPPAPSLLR
# experiment-description: cell-based or functional assay
assay-readout: IL-6 release (pg/ml), HeLa cells (pg/mL)
Quick note: give the figure in pg/mL, leave out the unit.

Annotate the binder IgG13.7 (antibody, V domains shown, Made transiently in HEK293T cells; also called IgG-FRK13.7) VH: HVQLVQSGAEVKKPGSSVKVSCKASGYTFTDFYINWVRQAPGQGLEWIGEIVPSQGEAKYNDKFKARVTITADKSTSTAYMELSSLRSEDTAVYYCARWDFLDYWGQGTTVTVSS VL: DVQMTQSPSSLSASVGDRVTITCRSSQSLLHSNGNTYLHWYQQKPGKAPKLLIYTVSNRFSGVPSRFSGSGSGTDFTLTISSLQPEDFATYYCSQSTHVPYTFGGGTKVEIK with its measured IL-6 release (pg/ml), HeLa cells.
1450
